Hello, the source for this data is ChEMBL document CHEMBL5500412, in case you need it.

Biological target: Coagulation factor XII (Homo sapiens)
Sequence (P00748 whole entry): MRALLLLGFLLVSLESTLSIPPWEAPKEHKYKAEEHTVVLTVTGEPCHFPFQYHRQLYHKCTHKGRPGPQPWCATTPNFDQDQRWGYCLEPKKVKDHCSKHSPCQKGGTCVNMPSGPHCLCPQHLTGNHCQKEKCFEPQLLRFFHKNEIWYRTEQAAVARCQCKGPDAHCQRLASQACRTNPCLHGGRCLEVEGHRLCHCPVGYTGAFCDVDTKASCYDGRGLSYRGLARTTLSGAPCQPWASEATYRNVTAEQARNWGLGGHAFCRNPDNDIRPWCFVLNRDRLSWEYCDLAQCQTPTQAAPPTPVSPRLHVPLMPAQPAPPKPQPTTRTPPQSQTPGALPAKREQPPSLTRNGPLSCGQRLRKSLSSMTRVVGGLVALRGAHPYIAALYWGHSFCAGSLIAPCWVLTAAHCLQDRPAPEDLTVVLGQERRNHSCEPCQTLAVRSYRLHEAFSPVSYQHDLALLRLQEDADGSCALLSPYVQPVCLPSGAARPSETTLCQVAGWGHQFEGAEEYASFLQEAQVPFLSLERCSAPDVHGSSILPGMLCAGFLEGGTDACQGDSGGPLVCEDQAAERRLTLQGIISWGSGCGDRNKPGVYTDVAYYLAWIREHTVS
Experiment: Inhibition of FXIIa (unknown origin) using H-D-Pro-Phe-Arg-pNA as substrate incubated for 20 mins followed by substrate addition by spectrophotometric analysis
Binary label based on IC50 with cut-off 50 nM: below gives y, not below gives n.

- Nc1nc(-c2ccccn2)nn1C(=O)c1ccc(NC(=O)c2ccccc2)cc1: n
- Nc1nc(-c2ccccn2)nn1C(=O)c1cccc2ccccc12: y
- CN1CCN(c2ccc(C(=O)n3nc(-c4ccncc4)nc3N)cc2)CC1: n
- CN(C)C(=O)N1CCN(c2ccc(C(=O)n3nc(-c4ccccn4)nc3N)c3ccccc23)CC1: n
- CN(C)CCN(C)c1ccc(C(=O)n2nc(-c3ccccn3)nc2N)cc1: n

### Prompt IC50 under 50 nM? Item: Nc1nc(-c2ccccn2)nn1C(=O)c1ccc(N2CCN(C3CCCCC3)CC2)c2ccccc12
### Response n

### Prompt Say whether its IC50 is strictly beneath 50 nM. Entry: CC(C)S(=O)(=O)N1CCN(c2ccc(C(=O)n3nc(-c4ccccn4)nc3N)c3ccccc23)CC1
### Response n

### Prompt Strictly below 50 nM in IC50? Cc1cc(C(=O)n2nc(-c3ccccn3)nc2N)ccc1N1CCN(C(C)C)CC1
### Response y

### Prompt Would you kindly verify if IC50 of Nc1nc(-c2ccccn2)nn1C(=O)c1ccc(N2CCC3(CC2)OCCO3)cc1 is strictly less than 50 nM?
### Response n

### Prompt For CC(C)N1CCN(c2ccc(C(=O)n3nc(-c4ccc(Cl)cn4)nc3N)cc2)CC1 , is the recorded IC50 below the cut-off of 50 nM?
### Response n

### Prompt Just wondering, is IC50 of CC(C)N1CCN(c2ccc(C(=O)n3nc(-c4ccc(F)cn4)nc3N)cc2)CC1 below 50 nM?
### Response n

### Prompt Is the reported IC50 for Nc1nc(-c2ccccn2)nn1C(=O)c1ccc(N2CCN(C3COC3)CC2)c2ccccc12 strictly below 50 nM?
### Response y

### Prompt Is IC50 strictly under 50 nM for the entry CC(C)N1CCN(c2ccc(C(=O)n3nc(-c4ccccn4)nc3N)cc2)CC1 ?
### Response n

### Prompt Does the reported IC50 of the following compound sit strictly below 50 nM? CC(C)N1CCN(c2ccc(C(=O)n3nc(-c4ccccn4)nc3N)c3ccccc23)CC1
### Response y

### Prompt Take the compound CN1CCN(c2ccc(C(=O)n3nc(-c4ccccn4)nc3N)cc2)CC1 and say whether its IC50 is less than 50 nM.
### Response n

### Prompt Strictly below 50 nM: is that where IC50 of Nc1nc(-c2ccccn2)nn1C(=O)c1ccc(N2CCN(C3CC3)CC2)c2ccccc12 sits?
### Response y
